The reported numbers originate from ChEMBL document CHEMBL1961873.

assayed_system: Serine/threonine-protein kinase pim-1 (Homo sapiens) (UniProt P11309);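 note: reported value is the mean inhibition of PIM1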
Sequence (P11309 whole entry, looked up): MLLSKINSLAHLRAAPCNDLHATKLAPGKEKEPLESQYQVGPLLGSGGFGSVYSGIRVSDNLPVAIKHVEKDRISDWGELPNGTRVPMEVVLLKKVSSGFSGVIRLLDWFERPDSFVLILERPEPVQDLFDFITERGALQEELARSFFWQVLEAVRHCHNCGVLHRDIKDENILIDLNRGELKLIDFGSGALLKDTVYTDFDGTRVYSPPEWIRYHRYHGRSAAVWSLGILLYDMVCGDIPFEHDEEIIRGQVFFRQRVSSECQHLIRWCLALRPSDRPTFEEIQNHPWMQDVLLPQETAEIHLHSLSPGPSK
test_context: at 0.1 µM
readout_label: inhibition (%)
Give bare numbers, in %.

{"input_smiles": "CCn1c(-c2nonc2N)nc2c(C#CC(C)(C)O)nc(OCCNC)cc21", "unit_of_measure": "%", "inhibition": 1.82}

Provide reported inhibition for each item, in the same order as listed.
1. CS(=O)(=O)CCNCc1nc(-c2ccc3ncnc(Nc4ccc(OCc5cccc(C(F)(F)F)c5)cc4)c3c2)cs1
2. N#Cc1cccc(Nc2nccc(-c3cnn4ncccc34)n2)c1
3. CC(C)c1ccc(Nc2nccc(-c3cnn4ncccc34)n2)cc1
4. CCS(=O)(=O)c1ccc(OC)c(Nc2nccc(N(C)c3ccc4c(C)n[nH]c4c3)n2)c1
5. COc1cccc(-n2ncc3c(N/N=C/c4ccc(S(C)(=O)=O)cc4)ncnc32)c1

1: 0.49; 2: 1.44; 3: -0.71; 4: 1.18; 5: -0.52

====

assayed_system: Serine/threonine-protein kinase 10 (Homo sapiens);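 note: mean percent inhibition of LOK (STK10)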
test_context: at 0.1 µM
Exercise: for every item that follows, state its recorded inhibition.
Numbers only, in %.

{"input_smiles": "NS(=O)(=O)c1ccc(N/N=C2\\C(=O)Nc3ccc(Cl)cc32)cc1", "unit_of_measure": "%", "inhibition": 6.82}
{"input_smiles": "COc1cc(/C=N/Nc2ncnc3c2cnn3C(C)C)ccc1O", "unit_of_measure": "%", "inhibition": 3}
{"input_smiles": "[O-][S+]1CCN(Cc2ccc(-c3ccc4ncnc(Nc5ccc(OCc6ccccc6)c(Cl)c5)c4c3)o2)CC1", "unit_of_measure": "%", "inhibition": 3.93}
{"input_smiles": "Cc1ccc2c(-c3ccnc(Nc4cccc(C(F)(F)F)c4)n3)c(-c3ccccc3)nn2n1", "unit_of_measure": "%", "inhibition": 8.49}
{"input_smiles": "N#Cc1cccc(Nc2nccc(-c3cnn4ncccc34)n2)c1", "unit_of_measure": "%", "inhibition": 5.05}

Provide reported inhibition for each item, in the same order as listed.
1. Cc1ccc(NC(=O)CC2CC2)cc1-c1ccc(C(=O)NCC2CC2)cc1
2. COc1ccc2ncnc(Nc3ccc(OCc4ccccc4)cc3)c2c1
3. Cc1ccc(Nc2ccnc(Nc3cccc(C(N)=O)c3)n2)cc1O

3.11
4.51
7.05

====

assayed_system: Serine/threonine-protein kinase MARK2 (Homo sapiens) (UniProt Q7KZI7)
Sequence (Q7KZI7 whole entry): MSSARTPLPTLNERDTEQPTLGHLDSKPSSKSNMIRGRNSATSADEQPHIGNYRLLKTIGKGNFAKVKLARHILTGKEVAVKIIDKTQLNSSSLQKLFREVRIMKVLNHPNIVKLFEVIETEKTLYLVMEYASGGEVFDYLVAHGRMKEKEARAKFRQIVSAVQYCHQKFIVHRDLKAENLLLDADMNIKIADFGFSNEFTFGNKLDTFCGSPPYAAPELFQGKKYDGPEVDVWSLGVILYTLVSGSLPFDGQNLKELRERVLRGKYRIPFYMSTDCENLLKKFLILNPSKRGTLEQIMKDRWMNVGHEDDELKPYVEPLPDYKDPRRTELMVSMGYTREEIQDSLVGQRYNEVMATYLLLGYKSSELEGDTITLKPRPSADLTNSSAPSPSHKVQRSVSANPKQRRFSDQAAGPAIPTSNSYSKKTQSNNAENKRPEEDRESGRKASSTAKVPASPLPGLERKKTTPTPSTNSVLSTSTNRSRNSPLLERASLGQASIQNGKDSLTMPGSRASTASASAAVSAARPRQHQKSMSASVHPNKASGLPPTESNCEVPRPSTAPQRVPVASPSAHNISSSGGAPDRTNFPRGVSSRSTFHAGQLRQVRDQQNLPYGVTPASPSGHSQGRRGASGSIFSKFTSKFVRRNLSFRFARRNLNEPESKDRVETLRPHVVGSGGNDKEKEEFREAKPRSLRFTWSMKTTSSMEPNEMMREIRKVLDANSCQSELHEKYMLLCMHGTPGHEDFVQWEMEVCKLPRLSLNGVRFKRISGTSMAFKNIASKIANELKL
test_context: at 1 µM
Description: GSK_PKIS: PAR-1Balpha mean inhibition at 1 uM [Nanosyn]
Exercise: for every item that follows, state its recorded inhibition.
Numbers only, in %.

Provide reported inhibition for each item, in the same order as listed.
1. CN1CCN(C(=O)c2ccc(NC(=O)Nc3ccc(N(C)c4ccnc(Nc5ccc(CS(C)(=O)=O)cc5)n4)cc3)cc2)CC1
2. OCc1ccc(-c2nc(-c3ccccn3)c(-c3ccc4c(c3)OCO4)[nH]2)cc1
3. CN(C)C(=O)O[C@H]1CN[C@H](C#Cc2cc3ncnc(Nc4ccc(OCc5cccc(F)c5)c(Cl)c4)c3s2)C1
4. FC(F)(F)c1ccc(-c2nn3ncccc3c2-c2ccnc(Nc3ccc4c(c3)OCCO4)n2)cc1

1: 8.38; 2: 2.05; 3: 1.09; 4: 4.45

====

assayed_system: Proto-oncogene tyrosine-protein kinase ROS (Homo sapiens);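 note: value given is the mean percent inhibition of ROS kinase activity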
test_context: at 1 µM
readout_label: inhibition (%)
Give bare numbers, in %.

Example entries and their recorded answers appear below.
{"input_smiles": "N#Cc1cccc(Nc2nccc(-c3cnn4ncccc34)n2)c1", "unit_of_measure": "%", "inhibition": 74.2}
{"input_smiles": "Cc1nc(-c2ccccc2)n2nc(NCCCN3CCOCC3)ncc12", "unit_of_measure": "%", "inhibition": 2.41}

Provide reported inhibition for each item, in the same order as listed.
1. CN(C)C(=O)O[C@H]1CN[C@H](C#Cc2cc3ncnc(Nc4ccc(OCc5cccc(F)c5)c(Cl)c4)c3s2)C1
2. NS(=O)(=O)c1cccc(Nc2cc(-c3ccc(F)cc3)n[nH]2)c1

1: 4.65; 2: 4.36

Provide reported inhibition for each item, in the same order as listed.
1. COc1ccc2ncnc(Nc3ccc(OCc4ccccc4)cc3)c2c1
2. COc1cc2ncnc(Nc3ccc4c(cnn4Cc4ccccc4)c3)c2cc1OC
3. CCS(=O)(=O)c1ccc(OC)c(Nc2ncc(-c3cccc(OC)c3)o2)c1
4. O=C(Nc1ccc(Oc2ccc3[nH]c(NC(=O)c4ccco4)nc3c2)cc1)Nc1cc(C(F)(F)F)ccc1F
5. NS(=O)(=O)c1ccc(-c2cc3ccncc3cc2OCc2ccccc2)cc1
6. CN(C)C(=O)O[C@@H]1CN[C@@H](C#Cc2cc3ncnc(Nc4ccc(OCc5cccc(F)c5)c(Cl)c4)c3s2)C1
7. NS(=O)(=O)c1ccc(NC=C2C(=O)Nc3ccc4ncsc4c32)cc1
8. C[C@@H](Oc1cc(-n2cnc3ccc(OC[C@@H](O)CO)cc32)sc1C(N)=O)c1ccccc1Cl

1. 3.14
2. 4.63
3. 43.3
4. 11.1
5. 11
6. 4.92
7. 36.8
8. 11.6

====

System: Tyrosine-protein kinase ABL1 (Homo sapiens), P00519 [M351T]
test_context: at 1 µM
Exercise: for every item that follows, state its recorded inhibition.
Numbers only, in %.

Example entries and their recorded answers appear below.
{"input_smiles": "NC(=O)c1cccc(Nc2nccc(Nc3cccc(F)c3)n2)c1", "inhibition, %": 57.7}
{"input_smiles": "Nc1nccc(-c2c(-c3ccc(F)cc3)nn3cc(C(F)(F)F)ccc23)n1", "inhibition, %": 1.14}
{"input_smiles": "COc1cccc(-n2ncc3c(N/N=C/c4ccc(C)cc4)ncnc32)c1", "inhibition, %": 73.7}
{"input_smiles": "Cc1nc(-c2ccccc2)n2nc(NCCCN3CCOCC3)ncc12", "inhibition, %": 0.73}

Return value of inhibition for input `COc1cccc(-n2ncc3c(N/N=C/c4ccc(S(C)(=O)=O)cc4)ncnc32)c1` , no commentary.
95.5

====

Exercise: for every item that follows, state its recorded inhibition.
assayed_system: Serine/threonine-protein kinase Chk1 (Homo sapiens) (UniProt O14757);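 note: reported figure is the mean percent inhibition of CHEK1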
Sequence (whole entry): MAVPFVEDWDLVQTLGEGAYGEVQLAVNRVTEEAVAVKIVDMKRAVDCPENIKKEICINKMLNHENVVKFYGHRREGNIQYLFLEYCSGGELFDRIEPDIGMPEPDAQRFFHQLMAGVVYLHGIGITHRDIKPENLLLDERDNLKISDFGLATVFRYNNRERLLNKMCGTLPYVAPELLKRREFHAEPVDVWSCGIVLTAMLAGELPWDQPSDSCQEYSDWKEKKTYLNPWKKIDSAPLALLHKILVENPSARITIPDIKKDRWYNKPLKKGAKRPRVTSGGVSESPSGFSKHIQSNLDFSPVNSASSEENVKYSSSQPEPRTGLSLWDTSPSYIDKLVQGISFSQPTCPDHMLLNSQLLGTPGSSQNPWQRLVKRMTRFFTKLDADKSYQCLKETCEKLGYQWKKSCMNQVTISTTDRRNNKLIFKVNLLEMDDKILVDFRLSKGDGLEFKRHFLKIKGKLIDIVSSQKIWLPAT
test_context: at 0.1 µM
Give bare numbers, in %.

Example entries and their recorded answers appear below.
{"input_smiles": "CCOc1nccc2c1nc(-c1nonc1N)n2CC", "assayed_system": "Serine/threonine-protein kinase Chk1 (Homo sapiens) (UniProt O14757)", "readout_label": "inhibition", "unit_of_measure": "%", "numeric_result": 4.09}
{"input_smiles": "NC(=O)c1sc(-n2cnc3ccccc32)cc1OCc1ccccc1Br", "assayed_system": "Serine/threonine-protein kinase Chk1 (Homo sapiens) (UniProt O14757)", "readout_label": "inhibition", "unit_of_measure": "%", "numeric_result": 9.58}
{"input_smiles": "COc1ccc2ncnc(Nc3ccc(OCc4ccccc4)cc3)c2c1", "assayed_system": "Serine/threonine-protein kinase Chk1 (Homo sapiens) (UniProt O14757)", "readout_label": "inhibition", "unit_of_measure": "%", "numeric_result": 0.93}
{"input_smiles": "COc1cccc(-n2ncc3c(N/N=C/c4ccc(S(C)(=O)=O)cc4)ncnc32)c1", "assayed_system": "Serine/threonine-protein kinase Chk1 (Homo sapiens) (UniProt O14757)", "readout_label": "inhibition", "unit_of_measure": "%", "numeric_result": 0.1}
{"input_smiles": "NS(=O)(=O)c1ccc(Nc2cc(-c3cccc(O)c3)n[nH]2)cc1", "assayed_system": "Serine/threonine-protein kinase Chk1 (Homo sapiens) (UniProt O14757)", "readout_label": "inhibition", "unit_of_measure": "%", "numeric_result": 5.99}

Please look at the following molecule next.
For Serine/threonine-protein kinase Chk1 (Homo sapiens) (UniProt O14757), give inhibition of the listed molecule: `COC(=O)c1ccc2c(c1)C(=Cc1cc(Br)c(O)c(Br)c1)C(=O)N2`
9.68

====

Exercise: for every item that follows, state its recorded inhibition.
assayed_system: Calcium/calmodulin-dependent protein kinase type IV (Homo sapiens) (UniProt Q16566);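 note: each value is a mean inhibition of CAMK4, part of the GSK PKIS kinase screening panel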
Sequence (Q16566 whole entry): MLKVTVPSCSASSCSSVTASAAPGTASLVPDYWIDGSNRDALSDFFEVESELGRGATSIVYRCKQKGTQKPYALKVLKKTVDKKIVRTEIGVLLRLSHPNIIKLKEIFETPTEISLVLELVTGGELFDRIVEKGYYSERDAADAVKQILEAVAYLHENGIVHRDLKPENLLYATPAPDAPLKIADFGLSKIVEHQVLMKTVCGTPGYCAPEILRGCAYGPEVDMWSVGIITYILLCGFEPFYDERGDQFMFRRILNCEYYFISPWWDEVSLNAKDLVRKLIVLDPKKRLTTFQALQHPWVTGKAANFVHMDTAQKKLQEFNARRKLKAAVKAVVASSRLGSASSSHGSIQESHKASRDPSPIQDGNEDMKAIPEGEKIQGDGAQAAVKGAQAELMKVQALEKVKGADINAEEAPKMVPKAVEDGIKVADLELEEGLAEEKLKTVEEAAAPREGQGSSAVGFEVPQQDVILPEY
test_context: at 0.1 µM
Numbers only, in %.

Example entries and their recorded answers appear below.
{"input_smiles": "Nc1nccc(C#Cc2cncnc2Nc2ccc(OCc3cccc(F)c3)c(Cl)c2)n1", "unit_of_measure": "%", "inhibition": -0.4}
{"input_smiles": "CN(C)c1cc2c(Nc3ccc4c(cnn4Cc4ccccc4)c3)ncnc2cn1", "unit_of_measure": "%", "inhibition": 1.84}

Provide reported inhibition for each item, in the same order as listed.
1. Nc1nccc(-c2c(-c3ccc(F)cc3)ncn2CCCN2CCOCC2)n1
2. Cc1ccc(Nc2ccnc(Nc3cccc(C(N)=O)c3)n2)cc1O
3. COc1cc2ncn(-c3cc(OCc4ccccc4S(C)(=O)=O)c(C#N)s3)c2cc1OC

0.27
-0.64
1.21
